- Assay name: compound binding in COS7 lysate, probe aLAP1, primary screen, cell lysate, small-molecule microarray (AID 1124);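 also: lysate comes from COS7 cells expressing LAP1 and is applied at 0.3 µg/mL; score merges spot fluorescence near 667 nm with signal-to-noise over triplicate slides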
- Condition notes: probe aLAP1, fluorescence, higher = more signal
# composite z-score annotations
The reply should be a number, written without any unit.

Entry [N-]=[N+]=NCc1ccccc1C[C@]1(C(=O)NCCN2CCOCC2)N=C(c2ccc(OCCCO)cc2)O[C@H]1c1ccccc1N=[N+]=[N-] : reported composite z-score = ? 0.645

Entry CCOC(=O)C[C@H]1[C@H](OC(=O)c2ccc(C(=O)c3ccccc3)cc2)[C@@H](NC(=O)C2CCCCC2)c2cc(OCCCO)ccc2N1C(=O)c1ccccc1 : reported composite z-score = ? 0.297

Entry CN(C)C(=O)[C@]1(CCC(=O)OC(C)(C)C)N=C(c2ccc(OCCCO)cc2)O[C@@H]1c1ccccc1N=[N+]=[N-] : reported composite z-score = ? 0.964

Entry [N-]=[N+]=Nc1ccccc1C[C@]1(C(=O)NCCN2CCOCC2)N=C(c2ccc(OCCCO)cc2)O[C@H]1c1ccccc1 : reported composite z-score = ? 0.203

Entry C=CC[C@]1(C(=O)N2CCOCC2)N=C(c2ccc(OCCCO)cc2)O[C@H]1c1ccccc1 : reported composite z-score = ? 0.446

Entry C=CCN1C(=O)[C@]2(O[C@H](CCO)[C@@H]([Si](C)(C)c3ccc(OC)cc3)[C@@H]2C)c2cc(NC(=O)[C@H](C)O)ccc21 : reported composite z-score = ? 0.371

Further cases:
Entry COC(=O)[C@@]1(Cc2ccc(OC)cc2)[C@H]2c3cc(C(=O)N4CCCC4)n(Cc4ccccn4)c3C[C@H]2CN1C(=O)c1ccccc1 : reported composite z-score = ? 0.285

* * *

# z-score annotations
- Assay name: PSAC antagonists in infected red cells, primary screen, cell-based, P. falciparum Indochina, OD700, 18 h (AID 1157)
- Condition notes: P. falciparum Indochina infected erythrocytes, osmotic lysis OD700, 18 h; higher = more signal, called active from +8 up or from −8 down
The source made the active and inactive calls.

As a guide, the following entries are already answered.
Entry Cc1ccc(S[C@]2(C(=O)NCc3ccccc3)CC(=O)N(Cc3ccccc3Cl)[C@@H]2c2ccc(CO)cc2I)cc1 : reported z-score = ? 0.255 (inactive)

Entry COC(=O)C[C@H]1O[C@]2(C(=O)N(Cc3ccccc3)c3ccc(NC(C)=O)cc32)[C@@H](C)[C@@H]1[Si](C)(C)c1ccc(OC)cc1 : reported z-score = ? 0.304 (inactive)

Further cases:
Entry CC(C)(C)N1CC=CC23O[C@@H]4C=CCOC(=O)[C@@H]4[C@H]2C(=O)N(CCCCCO)[C@@H]3C1=O (some centres undefined) : reported z-score = ? 0.453 (inactive)

* * *

- Test system: Noggin (protein binding on small-molecule microarray)
- Assay name: Noggin binders on small-molecule microarray, primary screen, biochemical, 635/667 nm fluorescence (AID 1095);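 also: score merges 667 nm feature fluorescence with signal to noise over triplicate slides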
- Condition notes: 635 nm fluorescence, higher = more signal
# binarize composite z-score: threshold 0.2 inclusive, high side 1, low side -1

Test whether the compound CCCCC(CC)C(O)C1C=CC2C(=O)N(c3ccccc3)C(=O)C2N1Nc1ccccc1 (stereo not drawn) records composite z-score of 0.2 or higher. -1

Test whether the compound Cc1c(NC(=O)CC#N)c(=O)n(-c2ccccc2)n1C records composite z-score of 0.2 or higher. 1

Test whether the compound C=CCNC(=O)[C@@H]1[C@H]2C(=O)O[C@H](c3ccccc3)[C@H](c3ccccc3)N2[C@H](c2ccc(O)cc2)[C@@]12C(=O)N(C(=O)OCCOC)c1ccccc12 records composite z-score of 0.2 or higher. 1

Test whether the compound C=CCC(OC(C)=O)[C@@H]1[C@@H](N(Cc2ccc(-c3ccccc3)cc2)C(=O)Cc2ccc(OC)cc2)c2cc(OCCCO)ccc2N1C(=O)c1ccc2ccccc2n1 (stereo partly drawn) records composite z-score of 0.2 or higher. -1

Test whether the compound CS(=O)(=O)CCOC(=O)C1=CC(c2ccc(CO)cc2)=CC(C2CC2)N(Cc2cc3c(cc2Br)OCO3)C=C1C(=O)OCCS(C)(=O)=O (stereo not drawn) records composite z-score of 0.2 or higher. 1

Further cases:
Test whether the compound Cc1ccc(S[C@]2(C(=O)O)CC(=O)N(C3Cc4ccccc4C3)[C@@H]2c2ccc(CO)cc2I)cc1 records composite z-score of 0.2 or higher. -1

Test whether the compound CC(C)C(=C=CC[C@H](O)c1cccc(OCCO)c1)C[C@H](O)COCc1ccccc1 records composite z-score of 0.2 or higher. 1

Just for reference, PubChem BioAssay is where these values come from.
